# Tested on: recombinant HIV-2 protease
# procedure-text: In vitro inhibition of recombinant HIV-2 protease expressed in Escherichia coli strain X90
property-label: IC50 (µM)
A number alone suffices; assume µM.

input: Entry O=C(C=CC[N+]1([O-])CCC(O)(c2ccc(Cl)cc2)CC1)c1ccc(F)cc1 (stereo unspecified) needs its IC50 filled in; supply it.
output: 40
